System Tested: human DAT (Homo sapiens)
Sequence (Q01959 whole entry): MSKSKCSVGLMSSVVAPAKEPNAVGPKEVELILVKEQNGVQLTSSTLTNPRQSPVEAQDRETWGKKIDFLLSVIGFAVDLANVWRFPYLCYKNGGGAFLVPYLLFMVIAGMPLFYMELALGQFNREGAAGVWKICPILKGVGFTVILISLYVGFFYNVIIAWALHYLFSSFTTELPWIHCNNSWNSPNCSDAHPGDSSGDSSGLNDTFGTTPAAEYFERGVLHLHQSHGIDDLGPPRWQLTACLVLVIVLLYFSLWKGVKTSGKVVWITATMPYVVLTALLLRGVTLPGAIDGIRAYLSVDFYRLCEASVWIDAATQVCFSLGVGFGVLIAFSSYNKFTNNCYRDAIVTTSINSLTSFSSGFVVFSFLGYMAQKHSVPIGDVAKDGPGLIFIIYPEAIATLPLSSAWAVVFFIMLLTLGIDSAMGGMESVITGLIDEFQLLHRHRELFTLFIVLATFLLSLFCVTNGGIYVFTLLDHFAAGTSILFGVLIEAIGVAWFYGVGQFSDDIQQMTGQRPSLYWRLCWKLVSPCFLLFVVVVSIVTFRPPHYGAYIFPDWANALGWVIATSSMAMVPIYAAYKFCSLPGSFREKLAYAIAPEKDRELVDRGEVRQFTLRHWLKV
Assay Explanation: hDAT release assay ([3H]dopamine release)
Readout Label: pEC50
The meaning of pEC50 here: minus log10 of the concentration in molar units.

Please fill in: pEC50 reported for CNC(C)C(=O)c1ccc2ccccn12 (stereo not shown) [Structure XLX] = 6.64

====

System Tested: Dopamine transporter (Homo sapiens, UniProt Q01959)
Assay Explanation: DAT monoamine transporter uptake assay (Blocker)
Readout Label: pIC50
On this scale, pIC50 is minus log10 of a concentration expressed in M (mol/L).

CNC(C)C(=O)c1ccc2ccccn12 (stereo not shown) has a reported pIC50 of 5.62

====

System Tested: human SERT (Homo sapiens, UniProt P31645)
Sequence (P31645 whole entry): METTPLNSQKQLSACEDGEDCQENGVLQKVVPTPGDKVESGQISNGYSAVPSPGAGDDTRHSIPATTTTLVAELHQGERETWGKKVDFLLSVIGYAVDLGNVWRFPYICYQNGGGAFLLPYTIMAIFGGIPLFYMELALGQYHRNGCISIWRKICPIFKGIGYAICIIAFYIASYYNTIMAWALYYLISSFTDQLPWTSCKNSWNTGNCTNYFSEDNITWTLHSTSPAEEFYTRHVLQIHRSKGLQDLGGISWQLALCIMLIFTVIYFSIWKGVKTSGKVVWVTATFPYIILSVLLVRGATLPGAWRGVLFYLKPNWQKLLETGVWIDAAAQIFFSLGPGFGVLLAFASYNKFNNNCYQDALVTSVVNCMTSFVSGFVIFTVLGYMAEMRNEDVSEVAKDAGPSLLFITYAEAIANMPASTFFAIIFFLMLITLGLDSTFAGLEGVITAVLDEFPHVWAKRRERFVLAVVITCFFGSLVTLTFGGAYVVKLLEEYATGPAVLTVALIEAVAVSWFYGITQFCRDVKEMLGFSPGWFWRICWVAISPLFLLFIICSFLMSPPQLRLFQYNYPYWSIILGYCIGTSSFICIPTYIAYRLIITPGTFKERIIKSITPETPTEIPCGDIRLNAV
Assay Explanation: hSERT release assay ([3H]serotonin release)
Readout Label: pEC50
The meaning of pEC50 here: minus log10 of the concentration in molar units.

Looking up CNC(C)C(=O)c1ccc2ccccn12 (stereo not shown) [Structure XLX] , I see its pEC50 listed as 6.96
